Tested on: PC-3 prostate
Test: NCI tumour cell line growth inhibition, 48 h
READOUT_NAME: TGI (µM)
Give just the number in µM; leave the unit off.

Lookup result for O=C1C2CC3C(CC2C(=O)[N]1[Sn]([c]1ccccc1)([c]1ccccc1)[c]1ccccc1)C1(Cl)C(Cl)=C(Cl)C3(Cl)C1(Cl)Cl (stereo unspecified) ; measured TGI: 0.315

Lookup result for CC(=O)[O-].CC(=O)[O-].[Mn+2].c1ccc(/C(=N\Nc2ccccn2)c2ccccn2)cc1 ; measured TGI: 14.5

Lookup result for COc1ccc(C2Oc3c(cccc3OC)C=C2[N+](=O)[O-])cc1OC (stereo unspecified) ; measured TGI: 26.5

Lookup result for COC(=O)[C@@H]1O[C@]12C(CO[Si](C)(C)C(C)(C)C)OC(n1ccc(=O)[nH]c1=O)C2O[Si](C)(C)C(C)(C)C (stereo partly specified) ; measured TGI: 68.1

====

System: OVCAR-8 ovarian
Experiment: NCI tumour cell line growth inhibition, 48 h; in the data active = GI50 below about 0.43 µM; inactive = the rest
Pick from active, inactive when you respond.

[ask] Look up the recorded call for Nc1ncc(-c2cnn(C3CCNCC3)c2)cc1-c1nc2ccccc2o1 in this test.
[reply] inactive

[ask] Look up the recorded call for CC[O-].CC[O-].[O-]c1ccccc1C=Nc1ccccc1.[O-]c1ccccc1C=Nc1ccccc1.[Ti+4] in this test.
[reply] inactive

[ask] Look up the recorded call for COC(=O)c1cccc(NC(=O)Nc2ccc3oc(=O)c4ccccc4c3c2)c1 in this test.
[reply] inactive

[ask] Look up the recorded call for CCC1CCc2nc3sc(C(=O)Nc4ccccc4F)c(N)c3cc2C1 (stereo unspecified) in this test.
[reply] inactive

[ask] Look up the recorded call for COc1cc2c(c(OC)c1OC)-c1ccc(OC)c(=O)cc1[C@@H](NC(=O)CCl)CC2 in this test.
[reply] active

[ask] Look up the recorded call for CS(=O)(=O)CCNCc1ccc(-c2ccc3ncnc(Nc4ccc(OCc5ccccc5)c(C(F)(F)F)c4)c3c2)o1 in this test.
[reply] inactive

[ask] Look up the recorded call for C/C(=C\c1ccn(-c2ccc(N)c(C(F)(F)F)c2)n1)[C@@H]1C[C@@H]2O[C@]2(C)CCC[C@H](C)[C@H](O)[C@@H](C)C(=O)C(C)(C)[C@@H](O)CC(=O)O1 in this test.
[reply] active

[ask] Look up the recorded call for COc1cc2c(c(OC)c1OC)-c1ccc([O-])c(=O)cc1[C@@H](NC(C)=O)CC2.COc1cc2c(c(OC)c1OC)-c1ccc([O-])c(=O)cc1[C@@H](NC(C)=O)CC2.[Cu+2] in this test.
[reply] inactive

[ask] Look up the recorded call for CCCCCCCCN(CCCCCCCC)C(=N)c1ccnc2ccccc12 in this test.
[reply] inactive

[ask] Look up the recorded call for C#C[C@@]1(O)[C@@H](CO)O[C@@H](n2cc(Cl)c3c(N)ncnc32)[C@@H]1O in this test.
[reply] active

[ask] Look up the recorded call for O=c1oc2ccc(Cl)cc2c(=O)n1-c1ccc(Cl)cc1F in this test.
[reply] inactive

====

Test system: MCF7 breast
Assay: NCI tumour cell line growth inhibition, 48 h
READOUT_NAME: TGI

Response field TGI (MCF7 breast) for item COC(C)(C)C(O)C(O)C[C@H](C)C1CC=C2C1(C)CCC1[C@@]3(C)CCC(OC(C)=O)C(C)(C)C3CC(OC3OC(COC(C)=O)C(O)C(O)C3O)[C@@]21C (some centres undefined) : > 10 µM

Response field TGI (MCF7 breast) for item C1COC2SC3=C(SC(=C4SC5=C(SCCS5)S4)S3)SC2O1 (centres undefined) : > 100 µM

Response field TGI (MCF7 breast) for item O=C1C2CC3C(CC2C(=O)[N]1[Sn]([c]1ccccc1)([c]1ccccc1)[c]1ccccc1)C1(Cl)C(Cl)=C(Cl)C3(Cl)C1(Cl)Cl (centres undefined) : 0.154 µM

Response field TGI (MCF7 breast) for item C=C1C(=O)O[C@@H]2[C@H]1CC[C@H](C)[C@]1(O)CCC(=O)[C@@]21C : > 10 µM

====

Tested on: SK-MEL-28 melanoma
Assay: NCI tumour cell line growth inhibition, 48 h; in the data active = GI50 below about 0.43 µM; inactive = the rest
Pick from active, inactive when you respond.

[ask] Look up the recorded call for CC(=O)O[C@H](C[C@H](C(C)C)N(C)C(=O)[C@@H](NC(=O)[C@H]1CCCCN1C)C(C)C)c1nc(C(=O)N[C@@H](Cc2ccccc2)C[C@H](C)C(=O)O)c(C)s1 in this test.
[reply] active

[ask] Look up the recorded call for O=S(=O)(NCCNc1cc(-c2cn(-c3ccccc3)nc2-c2cccc(O)c2)ccn1)c1ccc(C(F)(F)F)cc1 in this test.
[reply] inactive

[ask] Look up the recorded call for COc1cc2c(c(OC)c1OC)-c1ccc([O-])c(=O)cc1[C@@H](NC(C)=O)CC2.COc1cc2c(c(OC)c1OC)-c1ccc([O-])c(=O)cc1[C@@H](NC(C)=O)CC2.[Cu+2] in this test.
[reply] inactive

====

System: SF-268 CNS
Assay: NCI tumour cell line growth inhibition, 48 h
I'd be grateful if you could share measured TGI for these entries.

Lookup result for CN(C(=O)OC(C)(C)C)[C@H]1CCCC[C@H]1N1CCCC1 ; measured TGI: > 100 µM

Lookup result for CN(C)c1ccc(N=Nc2cccc3ccoc23)cc1 ; measured TGI: > 100 µM

Lookup result for O=c1oc2ccc(Cl)cc2c(=O)n1-c1ccc(Cl)cc1F ; measured TGI: 7.07 µM

Lookup result for CC1(C)CC23C(=O)N(c4ccccc4)C(=Nc4ccccc4)NC2=CC(C#N)=C(C#N)C3O1 (stereo not drawn) ; measured TGI: > 100 µM

Lookup result for O=C(O)CN1CCNCCN(CC(=O)O)CC1 ; measured TGI: > 100 µM

Lookup result for C[C@]12CCC3c4ccc(OC(=O)c5ccccc5)cc4CC[C@H]3C1CC[C@@H]2OC(=O)C12OC1CCC2=O (stereo partly drawn) ; measured TGI: 14.6 µM

Lookup result for COc1ccc(C2Oc3c(cccc3OC)C=C2[N+](=O)[O-])cc1OC (stereo not drawn) ; measured TGI: > 100 µM

Lookup result for CS(=O)(=O)c1ccc(N/N=C/c2c(-c3ccc(S(C)(=O)=O)cc3)[nH]c3ccc(F)cc23)cc1 ; measured TGI: > 50 µM

Lookup result for COc1ccc(OC)c(/C=C/c2nnc(Nc3ccc(Cl)cc3)o2)c1 ; measured TGI: 37.9 µM

Lookup result for CNC(=O)Nc1cc2c3c(c1)CCCN3CCC2 ; measured TGI: > 10 µM

Lookup result for [N-]=[N+]=NC1(N=[N+]=[N-])C(=O)NN=C(c2ccccc2)C1=O (stereo not drawn) ; measured TGI: 28.4 µM

Lookup result for O=C(OCc1ccccc1)N1CCNCCNCC1 ; measured TGI: > 100 µM

Lookup result for NC(=S)SCCC(=O)O ; measured TGI: > 100 µM

Lookup result for OCCN1CCN(CCO)Cc2ccccc2OCCOc2ccccc2C1 ; measured TGI: > 100 µM

Lookup result for CC1(C)C(O)c2ccccc2OC1N1CCN(C2Oc3ccccc3C(O)C2(C)C)CC1 (stereo not drawn) ; measured TGI: > 100 µM

Lookup result for O=S(=O)(O)c1cc(S(=O)(=O)O)c2c(N=Nc3cccc4ccccc34)c(O)ccc2c1 ; measured TGI: > 100 µM

Lookup result for O=C1C=C(Nc2ccccc2)c2ncccc2C1=O ; measured TGI: 1.8 µM

Lookup result for O=C(NNC(=S)Nc1ccccc1)C12CC3CC(CC(C3)C1)C2 ; measured TGI: > 100 µM

Lookup result for O=C(NO)c1cccc(OCc2ccc(Br)cc2)c1 ; measured TGI: 38.1 µM

Lookup result for CC(=O)O[C@H]1CC[C@H]2[C@@H]3CCc4cc(O)c(I)cc4[C@H]3CC[C@]12C ; measured TGI: 28.4 µM

Lookup result for C/C(=N\O)c1sc(-n2nc(-c3ccccc3)cc2-c2ccccc2)nc1C ; measured TGI: 19.8 µM

Lookup result for CC1=CC(C)C(C)N(CCNC(=O)Nc2ccccc2)c2ccccc21 (stereo not drawn) ; measured TGI: > 100 µM

Lookup result for O=C(O)C1C2C=CC(O2)C1C(=O)Nc1ccccc1 (stereo not drawn) ; measured TGI: > 100 µM

====

Tested on: SNB-75 CNS
Experiment: NCI tumour cell line growth inhibition, 48 h
I'd be grateful if you could share measured TGI for these entries.

Lookup result for COC(=O)C1([C@@H]2C[C@@H](O)[C@]3(C)CC/C=C(\C)CCC[C@H](C)[C@H](O)[C@@H]2O3)CC1 ; measured TGI: 17.8 µM

Lookup result for CCOC(=O)C12CCCC1(O)N(NC(=O)c1cccc(Cl)c1)C(C)=C2C(=O)OC (stereo not given) ; measured TGI: > 100 µM

Lookup result for COc1ccc(C(=S)c2cc(OC)c(OC)c(OC)c2)cc1OC(=O)CCl ; measured TGI: > 100 µM

Lookup result for CN(C)c1ccc(N=Nc2cccc3ccoc23)cc1 ; measured TGI: > 100 µM

Lookup result for CNC(=O)Nc1cc2c3c(c1)CCCN3CCC2 ; measured TGI: > 10 µM

Data origin: PubChem BioAssay (NCI)
